test system: HCT-15 colon; test: NCI-60 one-dose screen, 48 h (100 = growth as untreated, 0 = no growth, -100 = all killed); details: 10 µM unless noted
The panel holds about 83,000 compounds, 20% with a hit somewhere; the sample as a whole holds those more often. Activity calls are given as the source filed them. The calls were made as follows: active = growth percent below 10; inactive = the rest.
READOUT_NAME: growth

COMPOUND	REPORTED_VALUE
COc1ccc(-c2nc3ccc(-c4nc5ccc(N6CCN(c7ccccc7)CC6)cc5[nH]4)cc3[nH]2)cc1OC	15.8% (inactive)
CC1=C(O)C(=O)C(C(C#N)(C#N)C(C#N)C#N)C1 (stereo not drawn)	98.9% (inactive)
COc1ccc(-n2nc(C)c3c(Nc4ccc(NC(=O)Nc5c(Cl)cccc5Cl)cc4)ncnc32)cc1	72.2% (inactive)

Here are 6 compounds. What values of growth were reported for them?
1. CCCc1cc(=O)n2c(C(=O)Nc3cccc(C(=O)OCC)c3)c(C(=O)Nc3ccc(F)cc3)sc2n1
2. Cc1ccc(/C=C2\SC(=S)N(CC(=O)NCCCN3CCOCC3)C2=O)cc1
3. O=C(CCCCC(=O)N/N=C\c1ccccc1O)N/N=C\c1ccccc1O
4. COC(=O)[C@]12CCC(C)(C)C[C@H]1[C@H]1C(=O)C[C@@H]3[C@@]4(C)c5c([nH]c6ccccc6c5=O)C(C)(C)[C@@H]4CC[C@@]3(C)[C@]1(C)CC2
5. COc1ccc(C2C(C#N)=C(N)Oc3n[nH]c(-c4cccs4)c32)cc1I (stereo not drawn)
6. CC(C)CC1C(=O)N2CCC[C@H]2C2(O)O[C@](NC(=O)C3C=C4c5cccc6[nH]c(Br)c(c56)C[C@H]4N(C)C3)(C(C)C)C(=O)N12 (stereo partly drawn)

1. 66.4% [30 µM] (inactive)
2. 96.3% (inactive)
3. 21% (inactive)
4. 46.5% (inactive)
5. 81.4% (inactive)
6. 43.1% (inactive)

Here are 3 compounds. What values of growth were reported for them?
1. FC(F)(F)Oc1ccc2nc3nc4ccc[nH]c4cc3c2c1
2. CC1CCNC(C)C1 (stereo not drawn)
3. C#Cc1cccc(NC(=O)c2ccccc2NC(=O)CCl)c1

1. 87% (inactive)
2. 108% (inactive)
3. 68.7% [8.25 µM] (inactive)

Here are 4 compounds. What values of growth were reported for them?
1. Cc1nn(-c2ccc(F)cc2)c2ncnc(Oc3ccc(NC(=O)Nc4ccc(Cl)c(C(F)(F)F)c4)cc3)c12
2. CNc1ccc(-c2cc(=O)oc3ccc(Cl)cc23)cc1
3. COc1cc2c(cc1-c1c(C)noc1C)ncc1nc(C3CCC(F)(F)CC3)n([C@H](C)COC(F)F)c12
4. Cc1cc(N2CCOCC2)nc(NCc2cc(Nc3ccnc4cc(Cl)ccc34)ccc2F)n1

["111% (inactive)", "14.9% (inactive)", "16.8% (inactive)", "-81.9% (active)"]

Here are 8 compounds. What values of growth were reported for them?
1. O=C1/C(=C/c2ccc(Cl)cc2)SC(=S)N1CCc1ccc(O)cc1
2. COc1cccc(-c2nc3sccn3c2-c2ccnc(NCCNS(=O)(=O)c3ccccc3)c2)c1
3. O=C(COc1cccc(/C=C2\COc3ccc(Cl)cc3C2=O)c1)c1ccc(Cl)cc1
4. NS(=O)(=O)c1ccc(CN=C2NC(=O)S/C2=C\c2ccc(Br)cc2)cc1
5. CSc1nc(Nc2cccc(NC(=O)/C(C#N)=C/c3c(Cl)cccc3Cl)c2)c(C#N)c(-c2cccc([N+](=O)[O-])c2)n1
6. CCOc1nc(-c2ccccc2)cc2c(O)c(C(=O)N/N=C/c3ccc(O)cc3O)[nH]c(=O)c12
7. C#CCOc1ccc2ncnc(N3CCN(C(=O)CCl)CC3)c2c1
8. NC(=NCCCOc1ccc(Cl)cc1)Nc1ccc(Cl)cc1

1: 99.7% (inactive); 2: 11.8% (inactive); 3: 82% (inactive); 4: 103% (inactive); 5: 28.9% (inactive); 6: 23.9% (inactive); 7: 58.8% [8.25 µM] (inactive); 8: 56% (inactive)

Here are 5 compounds. What values of growth were reported for them?
1. CN1C(=O)C2(SCC(C(=O)NCc3ccccc3)N2C(=O)C2CCCCC2)c2ccccc21 (stereo not drawn)
2. O=C(/C=C/c1ccccc1)c1ccc(O)c(CN2CCN(c3cc4c(cc3F)c(=O)c(C(=O)O)cn4C3CC3)CC2)c1
3. N#C/C(=C\c1ccc(-c2cc(C(F)(F)F)ccc2Cl)o1)c1nc(-c2ccco2)cs1
4. O=C1NC(=O)C(c2ccc(Cl)cc2Cl)N1 (stereo not drawn)
5. COc1ccc(-c2nc3cc(C(=O)Nc4cc(OC)c(OC)c(OC)c4)ccc3n2C2CCCCC2)cc1

99.2% (inactive)
16.9% (inactive)
103% (inactive)
108% (inactive)
80.2% (inactive)

Here are 4 compounds. What values of growth were reported for them?
1. COc1cc(-c2ccc3c(c2)NC(=O)/C3=C\c2ccc[nH]2)ccc1O
2. C=C1c2nc3ccccc3n2C=C(c2ccc(Cl)cc2)N1Cc1ccc(OC)cc1
3. Nc1n[nH]c2cc(F)c([C@@H]3Nc4ccc5[nH]ncc5c4[C@H]4C5CCC(C5)[C@@H]34)cc12 (stereo partly drawn)
4. COc1ccc(S(=O)(=O)N2CCN(C)CC2)cc1NC(=O)c1[nH]c(C)c2c1CCCCC2=O

["14.1% (inactive)", "67.3% (inactive)", "6.23% (active)", "62.4% (inactive)"]

Here are 4 compounds. What values of growth were reported for them?
1. CC(C)(C)CC(C)(C)c1ccc(OCCOCC[N+](C)(C)Cc2ccccc2)cc1
2. CC(C)CSc1nc(N)nc2c1ncn2C1OC(CO)C(O)C1O (stereo not drawn)
3. CC(=O)O[C@H]1CC[C@]2(C)[C@H]3CC=C4[C@@H]5CC(C)(C)CC[C@]5(C(=O)NCCNCCNCCN)CC[C@@]4(C)[C@]3(C)CC[C@H]2C1(C)C
4. CCN1CCC2(CC1)NC(=O)c1c(c3ccc(Cl)c(Cl)c3n1C)C2C#N (stereo not drawn)

["95.2% (inactive)", "92.7% (inactive)", "-74.8% (active)", "14.3% (inactive)"]

Data request, read-out growth, for COc1cccc(/C=C2\SC(=Nc3ccc(NC(C)=O)cc3)NC2=O)c1OC
96.5% (inactive)
